Assay: S16 Schwann cell PMP22 intronic element firefly luciferase assay (AID 624032); also: nearly all actives have a fitted effect of over 30% in size
Details: S16 rat Schwann cells, PMP22 element FLuc, 24 h; series mostly up to 57.5 µM
Results filed as inconclusive are left out. Activity calls are given as the source filed them. Calls follow the shape of the dose curve; as a rule, active = well fitted inhibition curve with a large enough effect; inconclusive = small, poorly fitted or top-dose-only effect; inactive = no such curve, though single readings can be large or run the other way.
Outcomes: 1 for active, -1 for inactive

# compound, assignedLabel
records = [
    ("COc1ccc(Cc2cnc(N)nc2N)cc1OC", -1),
    ("O=C(/C=C/c1ccccc1)OCc1ccccc1", -1),
    ("Cc1cc(C)c(NC(=O)CN(CC(=O)O)CC(=O)O)c(C)c1Br", -1),
    ("Cc1cc(O)cc(C)c1Cl", -1),
    ("CCCCCC(N)=O", 1),
    ("Cn1c(=O)c2c(ncn2CCO)n(C)c1=O", -1),
    ("CCN(CC)CC1CCCCN1CC(=O)N1c2ccccc2C(=O)Nc2cccnc21 (centres undefined)", -1),
    ("Cc1cccc(Nc2ccccc2C(=O)O)c1C", -1),
    ("O=C(Cn1ccnc1[N+](=O)[O-])NCCO", -1),
    ("Cc1cc(=O)[nH]c(=S)[nH]1", -1),
    ("O=C(O)CCCCC1CCSS1 (centres undefined)", -1),
    ("CC(C)CCOC(=O)c1ccc(N(C)C)cc1", -1),
    ("Nc1ncnc(Nc2ccccc2)n1", -1),
    ("O=C(O)CCC(=O)O", -1),
]
